Where these numbers come from: patent US8846653B2

System: MiaPaCa-2 cells
Assay: MTT assay of MiaPaCa2 cultures, single 50 μM dose
Format: cell-based, human
Conditions: MiaPaCa2, 50 μM, 120 hours (5 days), average of 7 runs

compound | MTT assay result, av
CC(C)=CCC/C(C)=C/CC/C(C)=C/CC[C@]1(C)CCc2cc(O)c(C)c(C)c2O1 | 0.094
CC(C)=CCC/C(C)=C/CC/C(C)=C/CC/C(C)=C/CO | 1.731
Cc1c(O)cc2c(c1C)O[C@](C)(CCC[C@H](C)CCC[C@H](C)CCCC(C)C)CC2 | 1.618
Cc1c(C)c2c(c(C)c1OC(=O)CCC(=O)O)CC[C@@](C)(CCC[C@H](C)CCC[C@H](C)CCCC(C)C)O2 [TS, tocopherol succinate] | 0.825
O=C(O)CCC(=O)O | 1.495
CC(C)=CCC/C(C)=C/CC/C(C)=C/CC[C@]1(C)CCc2c(C)c(O)cc(C)c2O1 | 1.018
Cc1c(C)c2c(c(C)c1O)CC[C@@](C)(CCC[C@H](C)CCC[C@H](C)CCCC(C)C)O2 | 1.656
CC(C)=CCC/C(C)=C/CC/C(C)=C/CC[C@]1(C)CCc2cc(O)cc(C)c2O1 | 1.356
